Cited source: patent US6825172B2

Reported MIC values are given for each entry in this list.
System: E. faecalis ATCC29212
Assay: MIC, microdilution broth method (NCCLS)
Assay type: cell-based
Details: Enterococcus faecalis, Table 1, 6-Carbamoyl-3-Acyl Macrolide Derivatives, read-out: MIC Values, C: E. faecalis ATCC29212
Could you give me the number in mg/L? Just the number is fine.

Prompt: Which MIC value is on record for CC[C@H]1OC(=O)[C@H](C)[C@@H](OC(=O)c2cccnc2)[C@H](C)[C@@H](O[C@@H]2O[C@H](C)C[C@H](N(C)C)[C@H]2O)[C@](C)(OC(=O)NC/C=C/c2ccc(-c3ncccn3)cc2)C[C@@H](C)C(=O)[C@H](C)[C@H]2NC(=O)O[C@@]21C [Compound 7] ?
Completion: 0.5

Prompt: Which MIC value is on record for CC[C@H]1OC(=O)[C@H](C)[C@@H](OC(=O)Cc2cccnc2)[C@H](C)[C@@H](O[C@@H]2O[C@H](C)C[C@H](N(C)C)[C@H]2O)[C@](C)(OC(=O)NC/C=C/c2cncnc2)C[C@@H](C)C(=O)[C@H](C)[C@H]2NC(=O)O[C@@]21C [Compound 40] ?
Completion: 0.5

Prompt: Which MIC value is on record for CC[C@H]1OC(=O)[C@H](C)[C@@H](OC(=O)c2ccc([N+](=O)[O-])cc2)[C@H](C)[C@@H](O[C@@H]2O[C@H](C)C[C@H](N(C)C)[C@H]2O)[C@](C)(OC(=O)NC/C=C/c2ccc(-c3ncccn3)cc2)C[C@@H](C)C(=O)[C@H](C)[C@H]2NC(=O)O[C@@]21C [Compound 10] ?
Completion: 1

Prompt: Which MIC value is on record for CC[C@H]1OC(=O)[C@H](C)[C@@H](OC(=O)c2ccccc2)[C@H](C)[C@@H](O[C@@H]2O[C@H](C)C[C@H](N(C)C)[C@H]2O)[C@](C)(OC(=O)NC/C=C/c2cccnc2)C[C@@H](C)C(=O)[C@H](C)[C@H]2NC(=O)O[C@@]21C [Compound 18] ?
Completion: 0.5

Prompt: Which MIC value is on record for CC[C@H]1OC(=O)[C@H](C)[C@@H](OC(=O)C(C)C)[C@H](C)[C@@H](O[C@@H]2O[C@H](C)C[C@H](N(C)C)[C@H]2O)[C@](C)(OC(=O)NC/C=C/C=C/c2cnc(C(C)C)nc2)C[C@@H](C)C(=O)[C@H](C)[C@H]2NC(=O)O[C@@]21C [Compound 44] ?
Completion: 2

Prompt: Which MIC value is on record for CC[C@H]1OC(=O)[C@H](C)[C@@H](OC(=O)Cc2cccnc2)[C@H](C)[C@@H](O[C@@H]2O[C@H](C)C[C@H](N(C)C)[C@H]2O)[C@](C)(OC(=O)NC/C=C/c2ccc(Br)nc2)C[C@@H](C)C(=O)[C@H](C)[C@H]2NC(=O)O[C@@]21C [Compound 28] ?
Completion: 0.25

----------
System: S. pneumoniae ATCC49619
Experiment: MIC, microdilution broth method (NCCLS)
Format: cell-based
Conditions: Streptococcus pneumoniae, Table 1, 6-Carbamoyl-3-Acyl Macrolide Derivatives, read-out: MIC Values, D: S. pneumoniae ATCC49619
measured property: MIC (µg/mL)
Could you give me the number in µg/mL? Just the number is fine.

Prompt: Request body: readout MIC, system S. pneumoniae ATCC49619, query CC[C@H]1OC(=O)[C@H](C)[C@@H](OC(=O)Cc2cccnc2)[C@H](C)[C@@H](O[C@@H]2O[C@H](C)C[C@H](N(C)C)[C@H]2O)[C@](C)(OC(=O)NC/C=C/c2cnc3ccccc3c2)C[C@@H](C)C(=O)[C@H](C)[C@H]2NC(=O)O[C@@]21C [Compound 30] . Return the value.
Completion: 0.03

Prompt: Request body: readout MIC, system S. pneumoniae ATCC49619, query CC[C@H]1OC(=O)[C@H](C)[C@@H](OC(=O)c2ccc([N+](=O)[O-])cc2)[C@H](C)[C@@H](O[C@@H]2O[C@H](C)C[C@H](N(C)C)[C@H]2O)[C@](C)(OC(=O)NC/C=C/c2ccc(-c3ncccn3)cc2)C[C@@H](C)C(=O)[C@H](C)[C@H]2NC(=O)O[C@@]21C [Compound 10] . Return the value.
Completion: 0.12

Prompt: Request body: readout MIC, system S. pneumoniae ATCC49619, query CC[C@H]1OC(=O)[C@H](C)[C@@H](OC(=O)Cc2cccnc2)[C@H](C)[C@@H](O[C@@H]2O[C@H](C)C[C@H](N(C)C)[C@H]2O)[C@](C)(OC(=O)NC/C=C/C=C/c2cccnc2)C[C@@H](C)C(=O)[C@H](C)[C@H]2NC(=O)O[C@@]21C [Compound 23] . Return the value.
Completion: 0.03

Next up:
Prompt: Request body: readout MIC, system S. pneumoniae ATCC49619, query CC[C@H]1OC(=O)[C@H](C)[C@@H](OC(=O)Cc2ccccn2)[C@H](C)[C@@H](O[C@@H]2O[C@H](C)C[C@H](N(C)C)[C@H]2O)[C@](C)(OC(=O)NC/C=C/c2ccc(C#N)nc2)C[C@@H](C)C(=O)[C@H](C)[C@H]2NC(=O)O[C@@]21C [Compound 29] . Return the value.
Completion: 0.03
